system: crabgrass, large (large crabgrass, Digitaria sanguinalis); assay: Test C greenhouse herbicide test, pre- and postemergence; type: in vivo; settings: Postemergence, 125 g ai/ha; scale 0 to 100, 0 is no effect, 100 is complete control
reported-property: Plant response rating, Crabgrass, Large

Some compounds with known Plant response rating, Crabgrass, Large results, for comparison:
# test-smiles, value-measured
measured = [
    ("Cc1ccc2ccccc2c1-c1c(O)c(C(F)(F)F)nn(C)c1=O", 20),
    ("Cc1sc2ccccc2c1-c1c(O)c(Cl)nn(C)c1=O", 5),
    ("Cc1ccc2ccccc2c1-c1c(OC(=O)OC(C)C)c(C)nn(C)c1=O", 35),
]

With those in mind, consider the next compound.
Q. Recorded Plant response rating, Crabgrass, Large for COC(=O)Oc1cnn(C)c(=O)c1-c1c(C)sc2ccccc12 , please?
A. 10
